Data provenance is patent US20250368734A1.

- Target Of Assay: T1, human GPRC5D (human, UniProt Q9NZD1 1-345)
- T1 construct: whole, on cells; also called hGPRC5D; G-protein coupled receptor family C group 5 member D
- T1 sequence (Q9NZD1 whole entry): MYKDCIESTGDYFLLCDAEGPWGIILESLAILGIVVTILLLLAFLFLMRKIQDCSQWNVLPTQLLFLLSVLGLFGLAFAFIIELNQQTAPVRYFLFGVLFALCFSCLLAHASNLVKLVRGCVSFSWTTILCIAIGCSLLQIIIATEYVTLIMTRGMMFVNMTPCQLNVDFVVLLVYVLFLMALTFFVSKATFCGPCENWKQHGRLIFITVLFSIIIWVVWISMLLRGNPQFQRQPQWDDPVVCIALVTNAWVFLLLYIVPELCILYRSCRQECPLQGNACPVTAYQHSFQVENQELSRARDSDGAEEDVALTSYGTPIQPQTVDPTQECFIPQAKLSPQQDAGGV
- Method Summary: FACS, OPM-2 cells
Catalogue of binders with associated MFI
In your answer, state the number alone without any accompanying words.

Some entries whose results are on file:
1) 15D6G2 (antibody, V domains shown, Mouse monoclonal antibody from hybridoma subclone) VH: EVQLVESGGDLVKPGGYLRLSCAASGFTFSSHGMSWVRQTPDKRLEWVATISSGGRNTYYPDSVKGRFTISRDNAKNILYLQMSSLKSEDTAMFYCTRHSGDAMDYWGQGTSVTVSS VL: DILLTQSPAILSVSPGERVSFSCRASQSIGTNIHWYQQRTNGSPRLLIKYASESISGIPSRFSGSGSGTDFTLSINSVESEDIADYYCQQSKSWPTFGGGTKLEIK
1740
2) 12G12C2 (antibody, V domains shown, Mouse monoclonal antibody from hybridoma subclone) VH: QIQLVQSGPELKMPGETVKISCKASGYTFTTYGLSWVKQAPGKGLKWMGWINTFSGVPIYADDFKGRFAFSLETSASTAYLQINNLKNEDTATYFCARWGIRQRGDYWGQGATLTVSS VL: QIVLTQSPAIMSASPGEKVTMTCSASSSVSYLHWYQQKSGTSPKRWIYDTSKLASGVPVRFSGSGSETSYSLTISSMEAEDAATYYCQQWTSNPPTFGGGTKLEIK
1070

Now for a further binder.
Lab note: measured MFI of 116G1G4 (antibody, V domains shown, Mouse monoclonal antibody from hybridoma subclone) VH: EVQLQQSGPELVKPGASVKMSCKASGYTFTYYIMHWVKQEPGQGLQWIGYINPYNDGAYYSARFKGKATLTSDKSSSTAYMDLTSLTSEDSAVYYCARGGVRRYFDVWGAGTTVTVSS VL: DIQMTQSPSSLSASLGERVILTCRASQDIGSNLIWLQQKPDGTIKRLIYATFNLDSGVSKRFSGSRSGSDYSLTISSLDSEDFVDYYCLQYASSPYTFGGGTKLEIK was 706
